Data provenance: ChEMBL document CHEMBL4513216

# test.description: Toxicity liver stage against HepG2, at 10uM
# Assay type: cell-based
# Parameters: test concentration 10 uM, cell line HepG2-A16-CD81EGFP
# protocol.conditions: human, HepG2-A16-CD81EGFP cells; read-out: INHIBITION
measured.attribute: cytotoxicity at 10 µM (%)
Note: unit % is implicit; provide only the numeric part.

# molecule, cytotoxicity at 10 µM, %
rows = [
    ("Cc1nsc2ncc(C(=O)N3CCCC3c3cnn(C)c3)cc12 (stereo unspecified)", -1.8),
    ("Cc1ccc(CN2CCn3c(CNS(C)(=O)=O)nnc3C2)s1", -67.7),
    ("CC(C)(C)C(=O)NCC(=O)NCC1CCCS1 (stereo unspecified)", 3.46),
    ("Cn1c(NCC(O)c2ccc(Cl)cc2)c(C#N)c(=O)n(C)c1=O (stereo unspecified)", -3.27),
    ("Cc1ccc(NCc2ccc(C#N)cc2)c(CN(C)C)c1", -3.07),
]

Kindly consider the entry below.
get_value(item= "c1ccc(-c2cc(CN3CCC(c4ccn[nH]4)CC3)on2)cc1" , readout=cytotoxicity at 10 µM) returns 7.98

---

Each item that follows carries a reported cytotoxicity at 10 µM.
# test.description: Toxicity liver stage against HepG2, at 10uM
# Type: cell-based
# Design: test concentration 10 uM, cell line HepG2-A16-CD81EGFP
# protocol.conditions: human, HepG2-A16-CD81EGFP cells; read-out: INHIBITION
Note: unit % is implicit; provide only the numeric part.

# compound, cytotoxicity at 10 µM, %
measured = [
    ("CC(C)c1cc(NC(=O)CN2CCC(N3CCCCC3)CC2)on1", -9.68),
]

get_value(item= "CCCc1noc(CCC(=O)Nc2cc(C(F)(F)F)c[nH]c2=O)n1" , readout=cytotoxicity at 10 µM) returns -7.21

get_value(item= "CCS(=O)(=O)Nc1ccc2oc(C)c(C(C)=O)c2c1" , readout=cytotoxicity at 10 µM) returns 7.13

get_value(item= CCN(C(=O)CCc1ccccc1)C1CC(=O)NC1=O (stereo unspecified) , readout=cytotoxicity at 10 µM) returns -7.32

---

# test.description: Toxicity liver stage against HepG2, at 10uM
# Format: cell-based
# Parameters: test concentration 10 uM, cell line HepG2-A16-CD81EGFP
# protocol.conditions: human, HepG2-A16-CD81EGFP cells; read-out: INHIBITION
Each item that follows carries a reported cytotoxicity at 10 µM.
Note: unit % is implicit; provide only the numeric part.

get_value(item= CCCc1nc(C(C)(C)NC(=O)C2CC(=O)N(CC)C2)no1 (configuration not stated) , readout=cytotoxicity at 10 µM) returns 3.51

---

Each item that follows carries a reported cytotoxicity at 10 µM.
# test.description: Toxicity liver stage against HepG2, at 10uM
# Format: cell-based
# Design: test concentration 10 uM, cell line HepG2-A16-CD81EGFP
# protocol.conditions: human, HepG2-A16-CD81EGFP cells; read-out: INHIBITION
Note: unit % is implicit; provide only the numeric part.

# smiles.repr, measured.attribute, value.reported
records = [
    ("CN1C[C@@H](C(=O)NC2CC2)[C@@]2(COc3ccc(F)cc3C2=O)C1", "cytotoxicity at 10 µM", -26.5),
    ("Cc1nc(-c2cccc(N3CCC(N[C@@H]4CCOC4)CC3)c2)cs1", "cytotoxicity at 10 µM", -8.16),
    ("CN(CCO)Cc1nnc(C2CCN(C(=O)CN3CCCC3)CC2)n1C", "cytotoxicity at 10 µM", 2.1),
    ("C[C@@H]1CN(C(=O)c2cc(COc3ccc4c(c3)OCO4)[nH]n2)C[C@H](C)O1", "cytotoxicity at 10 µM", -6.37),
]

Kindly consider the entry below.
get_value(item= "O=C(C1=CCCC1)N1CCO[C@H]2[C@@H](OCC3CC3)CC[C@@H]21" , readout=cytotoxicity at 10 µM) returns -5.66
